# Tested on: FaDu cells
# protocol details: Inhibition test for sphere-forming ability of cancer cells in the presence of BSA (Test Example 2), FaDu
# Format: cell-based, human
# condition: in the presence of 5% BSA, cultured 4 days
pIC50: −log10 of the molar value.
reported metric: pIC50

Observe how each entry below is paired with its result.
{"compound structure": "O=C(Nc1cn(Cc2cccc(Cl)c2)cn1)c1cnc2[nH]ccc2c1", "reported metric": "pIC50", "value": 5.28}
{"compound structure": "COc1ccc(C(=O)Nc2cn(Cc3ccc(F)c(F)c3F)cn2)cc1OC", "reported metric": "pIC50", "value": 6.18}
{"compound structure": "CNc1ccc(/C=C/C(=O)Nc2cn(Cc3cccc(Cl)c3)cn2)cn1", "reported metric": "pIC50", "value": 7.15}
{"compound structure": "CNc1ccc(C(=O)Nc2cn(Cc3cccc(Cl)c3)cn2)cn1", "reported metric": "pIC50", "value": 5.23}
{"compound structure": "COc1ccc(C(=O)Nc2cn(Cc3ccccc3F)cn2)cc1OC", "reported metric": "pIC50", "value": 5.36}

[A] COc1ccc(C(=O)Nc2cn(Cc3ccc(F)cc3F)cn2)cc1OC
[B] COc1ccc(C(=O)Nc2cn(Cc3cc(F)ccc3F)cn2)cc1OC
Field: entry with larger pIC50 (options A / B ). Pick one and reply with its label. B

[I] O=C(Nc1ccc(Cn2cccn2)cc1)c1cn(Cc2cccc(Cl)c2)cn1
[II] COc1ccc(C(=O)Nc2cn(Cc3ccc(F)cc3C(F)(F)F)cn2)cc1OC
[III] COc1ccc(C(=O)Nc2cn(Cc3cc(F)cc(F)c3F)cn2)cc1OC
Sort the compounds on pIC50; start with the lowest figure. Reply: labels, ordered per the request. II, I, III

[A] COc1ccc(C(=O)Nc2cn(Cc3cc(F)c(F)c(F)c3F)cn2)cc1OC
[B] COc1ccc(C(=O)Nc2cn(Cc3cccc(F)c3F)cn2)cc1OC
[C] COc1ccc(C(=O)Nc2cn(Cc3c(F)ccc(F)c3F)cn2)cc1OC
# sort list by recorded pIC50, greatest to least Reply: labels, ordered per the request. A, B, C

[A] COc1ccc(C(=O)Nc2cn(Cc3cccc(F)c3)cn2)cc1OC
[B] Cc1csc(NC(=O)c2cn(Cc3cccc(Cl)c3)cn2)n1
# return whichever of A and B has the smaller pIC50 Pick one and reply with its label. B

---

# Test system: HCT-116 cells
# protocol details: Inhibition test for sphere-forming ability of cancer cells in the presence of BSA (Test Example 2), HCT-116
# Format: cell-based, human
# condition: HCT-116 cells, in the presence of 5% BSA, cultured 4 days
reported metric: IC50 (nM)

Observe how each entry below is paired with its result.
{"compound structure": "O=C(Nc1cn(Cc2cccc(C(F)(F)F)c2)cn1)c1cnc2ccccc2c1", "value": 8000}
{"compound structure": "COc1ccc(NC(=O)c2cn(Cc3cccc(Cl)c3)cn2)cc1OC", "value": 6050}
{"compound structure": "COc1ccc(C(=O)Nc2cn(Cc3cc(F)cc(C(F)(F)F)c3)cn2)cc1OC", "value": 510}

[A] O=C(Nc1cn(Cc2cccc(C(F)(F)F)c2)cn1)c1cnc2cnccc2c1
[B] O=C(Nc1ccncn1)c1cn(Cc2cccc(Cl)c2)cn1
# return whichever of A and B has the smaller IC50 Pick one and reply with its label. A

[1] O=C(Nc1ccc(Cn2cccn2)cc1)c1cn(Cc2cccc(Cl)c2)cn1
[2] O=C(Nc1cn(Cc2cccc(Cl)c2)cn1)c1ccc2cnccc2c1
# return whichever of 1 and 2 has the smaller IC50 Pick one and reply with its label. 2

The reported measurements were obtained from patent US10898469B2.
